Target: Adenosine receptor A3 (Homo sapiens, UniProt P0DMS8)
Sequence (P0DMS8 whole entry): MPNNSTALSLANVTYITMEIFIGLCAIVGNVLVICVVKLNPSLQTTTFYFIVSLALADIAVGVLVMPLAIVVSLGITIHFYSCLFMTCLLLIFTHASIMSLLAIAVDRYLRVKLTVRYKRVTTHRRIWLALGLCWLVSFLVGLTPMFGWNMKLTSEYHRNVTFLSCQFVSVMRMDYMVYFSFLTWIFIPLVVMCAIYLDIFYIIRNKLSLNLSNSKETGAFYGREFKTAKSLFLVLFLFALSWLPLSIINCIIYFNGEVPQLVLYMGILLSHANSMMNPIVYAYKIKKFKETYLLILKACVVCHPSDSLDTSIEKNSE
Test: Partial agonist activity at recombinant human A3AR expressed in HEK293 cells assessed as inhibition of forskolin-stimulated cAMP accumulation measured after 30 mins in presence of A2BAR blocker PSB-603 by Glo-sensor assay
recordedEndpoint: EC50 (nM)
Expressed in nM, but write only the number.

smilesStructure: COc1cc(CCNc2nc(C#Cc3ccc(Br)s3)nc3c2ncn3[C@H]2[C@H](O)[C@H](O)[C@@H]3C[C@@H]32)ccc1O
recordedEndpoint: EC50
unitDescriptor: nM
observedValue: 692

For the next question, use this compound.
Query: If you can, please state the reported EC50 value of O[C@@H]1[C@H](O)[C@@H]2C[C@@H]2[C@H]1n1cnc2c(NCCc3ccccc3)nc(C#Cc3ccc(Cl)s3)nc21 .
Result: 2410
